Biological target: T1, human parathyroid hormone receptor 1, wild-type (hPTHR-1) (human, UniProt Q03431 27-593)
T1 sequence (looked up): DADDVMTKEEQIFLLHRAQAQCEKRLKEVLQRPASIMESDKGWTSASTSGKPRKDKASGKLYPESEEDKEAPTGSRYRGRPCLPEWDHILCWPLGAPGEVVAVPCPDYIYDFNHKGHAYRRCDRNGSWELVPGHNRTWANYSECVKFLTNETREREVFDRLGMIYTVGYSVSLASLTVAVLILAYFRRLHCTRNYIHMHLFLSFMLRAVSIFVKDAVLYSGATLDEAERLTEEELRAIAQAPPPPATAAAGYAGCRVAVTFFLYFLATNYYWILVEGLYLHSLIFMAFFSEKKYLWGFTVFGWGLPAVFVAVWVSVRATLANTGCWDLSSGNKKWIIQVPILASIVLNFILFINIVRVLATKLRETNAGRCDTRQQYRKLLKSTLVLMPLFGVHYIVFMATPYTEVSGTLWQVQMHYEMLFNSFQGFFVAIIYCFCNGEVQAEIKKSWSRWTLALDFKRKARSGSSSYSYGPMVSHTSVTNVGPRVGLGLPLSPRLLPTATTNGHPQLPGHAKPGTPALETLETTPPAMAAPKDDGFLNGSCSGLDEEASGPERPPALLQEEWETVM
Assay: cell-based or functional assay
Non-standard residues stand in square brackets, D forms with d. No end group written: not given here. β3hW = N[C@H](CC(=O)O)Cc1c[nH]c2ccccc12; β3hE = N[C@@H](CCC(=O)O)CC(=O)O; β3hF = N[C@H](CC(=O)O)Cc1ccccc1; β3hK = NCCCC[C@H](N)CC(=O)O; β3hM = CSCC[C@H](N)CC(=O)O; β3hD = NC(CC(=O)O)CC(=O)O
cAMP pEC50 by entry:
A bare number is all that is needed in reply.

Example entries begin here.
BINDER	cAMP pEC50
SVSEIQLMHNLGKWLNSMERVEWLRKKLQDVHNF-NH2 (not fully specified (residue 14); printed as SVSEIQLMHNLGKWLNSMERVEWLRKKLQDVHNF-NH2; also: seven β3 residues, positions not given here in text, also called α/β-peptide D7) [D7]	9.41
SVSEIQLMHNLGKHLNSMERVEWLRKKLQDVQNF-NH2 (not fully specified (residues 20, 24, 28, 32); printed as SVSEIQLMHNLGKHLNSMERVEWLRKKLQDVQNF-NH2; also: five β3 residues, positions not given here in text, also called α/β-peptide B5) [B5]	9.97
SVSEIQLMHNLGK[β3hW]LNS[β3hM]ERV[β3hE]WLR[β3hK]KLQ[β3hD]VHN[β3hF]-NH2 (also called α/β-peptide D6) [D6]	9.89

# return recorded cAMP pEC50 for input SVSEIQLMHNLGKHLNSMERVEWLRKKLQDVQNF-NH2 (not fully specified (residue 32); printed as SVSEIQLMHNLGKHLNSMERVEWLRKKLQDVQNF-NH2; also: three β3 residues, positions not given here in text, also called α/β-peptide B3) [B3] 9.94
